Source listed as patent US5808100A.

Kindly state ε(0): absorbancy of the polymer not irradiated (initial color) for each of the entries shown.
- experimental protocol: Photochromic properties of polymer (2 mm thick) containing the chromene compound, xenon lamp irradiation 120 seconds
- Type: physicochemical
- assay context: not irradiated, at λmax

Exam item: Need ε(0): absorbancy of the polymer not irradiated (initial color) of Fc1sccc1C1(c2ccc3ccccc3c2)C=Cc2c(ccc3ccccc23)O1 (centres unmarked) [Compound 7] , thanks.
Marked response: 0.05

Exam item: Need ε(0): absorbancy of the polymer not irradiated (initial color) of C1=CC(c2ccc3ccccc3c2)(c2ccco2)Oc2ccc3ccccc3c21 (centres unmarked) [Compound 4] , thanks.
Marked response: 0.07

Exam item: Need ε(0): absorbancy of the polymer not irradiated (initial color) of Fc1occc1C1(c2ccc3ccccc3c2)C=Cc2c(ccc3ccccc23)O1 (centres unmarked) [Compound 32] , thanks.
Marked response: 0.05

Exam item: Need ε(0): absorbancy of the polymer not irradiated (initial color) of Cn1cccc1C1(c2ccc3ccccc3c2)C=Cc2c(ccc3ccccc23)O1 (centres unmarked) [Compound 8] , thanks.
Marked response: 0.06

Exam item: Need ε(0): absorbancy of the polymer not irradiated (initial color) of COc1ccc2c3c(ccc2c1)OC(c1ccc2ccccc2c1)(c1cnco1)C=C3 (centres unmarked) [Compound 11] , thanks.
Marked response: 0.05
